From: patent US20200038513A1

Assay: Pharmacokinetics of intraperitoneal or intravenous injection in CD1 mice
Assay type: in vivo
Settings: IV 1.0 mg/kg, CD1 mice plasma, 24 h
measure: Conc. (ng/mL) Mouse 2

Some molecules with recorded Conc. (ng/mL) Mouse 2:
molecule: Cc1ncsc1-c1ccc(CNC(=O)[C@@H]2C[C@@H](O)CN2C(=O)[C@@H](NC(=O)CCOCCOc2ccc(Nc3ncc(C(F)(F)F)c(NCc4cccc(N(C)S(C)(=O)=O)c4)n3)cc2)C(C)(C)C)cc1
measure: Conc. (ng/mL) Mouse 2
reported-value: BLOQ
--
molecule: Cc1ncsc1-c1ccc(CNC(=O)[C@@H]2C[C@@H](O)CN2C(=O)[C@@H](NC(=O)COCCOc2ccc(Nc3ncc(C(F)(F)F)c(NCc4cccc(N(C)S(C)(=O)=O)c4)n3)cc2)C(C)(C)C)cc1
measure: Conc. (ng/mL) Mouse 2
reported-value: BLOQ
--
molecule: CN(c1cccc(CNc2nc(Nc3ccc(OCCCOCCC(=O)NCCOc4cccc5c4C(=O)N(C4CCC(=O)NC4=O)C5=O)cc3)ncc2C(F)(F)F)c1)S(C)(=O)=O (centres unmarked)
measure: Conc. (ng/mL) Mouse 2
reported-value: BLOQ
--
molecule: Cc1ncsc1-c1ccc(CNC(=O)[C@@H]2C[C@@H](O)CN2C(=O)[C@@H](NC(=O)CCOCCCOc2ccc(Nc3ncc(C(F)(F)F)c(NCc4cccc(N(C)S(C)(=O)=O)c4)n3)cc2)C(C)(C)C)cc1
measure: Conc. (ng/mL) Mouse 2
reported-value: BLOQ

Specify reported Conc. (ng/mL) Mouse 2 for the molecule shown: Cc1ncsc1-c1ccc(CNC(=O)[C@@H]2C[C@@H](O)CN2C(=O)[C@@H](NC(=O)COCCCOc2ccc(Nc3ncc(C(F)(F)F)c(NCc4cccc(N(C)S(C)(=O)=O)c4)n3)cc2)C(C)(C)C)cc1
BLOQ

----------
Entries and their concentration at 1 h values follow.
Assay: Pharmacokinetics of intraperitoneal or intravenous injection in CD1 mice
Format: in vivo
Conditions: male, CD1, mouse, plasma, iv, 1 mg/kg, IV 1.0 mg/kg, CD1 mice plasma, 1 h; read-out: Conc. (ng/mL) Mouse 2
Number first, unit second: that is the form wanted.

Worked examples follow.
mol-smiles: Cc1ncsc1-c1ccc(CNC(=O)[C@@H]2C[C@@H](O)CN2C(=O)[C@@H](NC(=O)CCOCCOc2ccc(Nc3ncc(C(F)(F)F)c(NCc4cccc(N(C)S(C)(=O)=O)c4)n3)cc2)C(C)(C)C)cc1
reported-value: 16.7 ng/mL
--
mol-smiles: Cc1ncsc1-c1ccc(CNC(=O)[C@@H]2C[C@@H](O)CN2C(=O)[C@@H](NC(=O)COCCCOc2ccc(Nc3ncc(C(F)(F)F)c(NCc4cccc(N(C)S(C)(=O)=O)c4)n3)cc2)C(C)(C)C)cc1
reported-value: 11.6 ng/mL
--
mol-smiles: Cc1ncsc1-c1ccc(CNC(=O)[C@@H]2C[C@@H](O)CN2C(=O)[C@@H](NC(=O)CCOCCCOc2ccc(Nc3ncc(C(F)(F)F)c(NCc4cccc(N(C)S(C)(=O)=O)c4)n3)cc2)C(C)(C)C)cc1
reported-value: 58.8 ng/mL

// next item, concentration at 1 h requested
// fetch concentration at 1 h given entry Cc1ncsc1-c1ccc(CNC(=O)[C@@H]2C[C@@H](O)CN2C(=O)[C@@H](NC(=O)COCCOc2ccc(Nc3ncc(C(F)(F)F)c(NCc4cccc(N(C)S(C)(=O)=O)c4)n3)cc2)C(C)(C)C)cc1
9.77 ng/mL
